# assayed_target: UniProtKB P29990
# Sequence (P29990 2493-2755 limits assumed): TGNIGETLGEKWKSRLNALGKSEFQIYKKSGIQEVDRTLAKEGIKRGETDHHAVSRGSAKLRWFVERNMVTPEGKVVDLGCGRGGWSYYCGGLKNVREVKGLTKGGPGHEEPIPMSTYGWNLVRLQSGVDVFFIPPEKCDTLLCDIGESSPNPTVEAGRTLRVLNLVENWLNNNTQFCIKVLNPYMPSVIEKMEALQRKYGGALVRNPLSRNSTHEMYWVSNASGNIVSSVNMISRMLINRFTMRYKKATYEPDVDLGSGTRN
# test_summary: GTP-Bodipy displacement
# Type: binding
# assay_setup: 10 nM GTP-Bodipy, 500 nM DEN MTase
reported_metric: Ki (nM)
Numbers only, in nM.

The cases that follow already have their Ki on record.
compound=Cn1c[n+]([C@@H]2O[C@H](COP(=O)(O)OP(=O)(O)OP(=O)(O)OC[C@H]3O[C@@H](n4cnc5c(=O)[nH]c(N)nc54)[C@H](O)[C@@H]3O)[C@@H](O)[C@H]2O)c2nc(N)[nH]c(=O)c21 assayed_target="UniProtKB P29990" unit_label=nM assay_result=100
compound=Nc1nc2c(ncn2[C@@H]2O[C@H](COP(=O)(O)OP(=O)(O)O)[C@@H](O)[C@H]2O)c(=O)[nH]1 assayed_target="UniProtKB P29990" unit_label=nM assay_result=100
compound="CSc1nc(N)nc2c1ncn2C1OC(COP(=O)(O)OP(=O)(O)OP(=O)(O)O)C(O)C1O (stereo not drawn)" assayed_target="UniProtKB P29990" unit_label=nM assay_result=230
compound=Nc1nc2c(ncn2[C@@H]2O[C@H](COP(=O)(O)O)[C@@H](O)[C@H]2O)c(=O)[nH]1 assayed_target="UniProtKB P29990" unit_label=nM assay_result=950
compound=Nc1nc2c(ncn2[C@H]2C[C@H](O)[C@@H](COP(=O)(O)OP(=O)(O)OP(=O)(O)O)O2)c(=O)[nH]1 assayed_target="UniProtKB P29990" unit_label=nM assay_result=610
compound="O=c1[nH]cnc2c1ncn2[C@@H]1O[C@H](COP(=O)(O)OP(=O)(O)OP(=O)(O)O)[C@@H](O)[C@H]1O [ITP, Inosine triphosphate]" assayed_target="UniProtKB P29990" unit_label=nM assay_result=120

Batch request: Ki for each of the following compounds.
1. Nc1nc2c(ncn2[C@H]2CC[C@@H](COP(=O)(O)OP(=O)(O)OP(=O)(O)O)O2)c(=O)[nH]1
2. O=c1[nH]c(=O)c2ncn([C@@H]3O[C@H](COP(=O)(O)OP(=O)(O)OP(=O)(O)O)[C@@H](O)[C@H]3O)c2[nH]1 [XTP, xanthine triphosphate]
3. Cn1c[n+]([C@@H]2O[C@H](COP(=O)(O)OP(=O)(O)OP(=O)(O)OC[C@H]3O[C@@H](n4cnc5c(N)ncnc54)[C@H](O)[C@@H]3O)[C@@H](O)[C@H]2O)c2nc(N)[nH]c(=O)c21

Completion:
[770, 480, 170]
